Tested on: Mus musculus
Test: Hypoglycemic activity in db/db mouse assessed as decrease in blood glucose level at 30 mg/kg, po treated for 3 week measured at 3 hrs post last dose (reference value: 0.0 +/- 6.8%)
Assay type: functional
Set-up: scale not given: the % may be the effect or the level left
Reported Activity values are given for each entry in this list.
Output spec: scalar in %, unitless text.

Example entries begin here.
>  <Compound>
CCc1ccc(CCOc2ccc(CC3SC(=O)NC3=O)cc2)nc1 (centres undefined)

>  <Activity (%)>
37.4

$$$$
>  <Compound>
O=C(O)C1CCc2c(c3cc(OCc4ccccc4)ccc3n2S(=O)(=O)c2ccc(Cl)cc2)C1 (centres undefined)

>  <Activity (%)>
14.3

$$$$
>  <Compound>
O=C(O)C1CCc2c(c3cc(OCc4ccccc4)ccc3n2C(=O)c2ccc(Cl)cc2)C1 (stereo in doubt; 7a)

>  <Activity (%)>
28

$$$$

Proceed to the following item.
Q: Endpoint output: Activity of Cc1c(CC(=O)O)c2cc(OCc3ccccc3)ccc2n1C(=O)c1ccc(Cl)cc1 . Value?
A: 13.5

###

System: Mus musculus
Assay: Hypoglycemic activity in db/db mouse assessed as decrease in blood glucose level at 30 mg/kg, po treated for 2 week measured at 3 hrs post last dose (reference value: 0.0 +/- 4.0%)
Assay type: functional
Set-up: scale not given: the % may be the effect or the level left
Property Label: Activity (%)
Output spec: scalar in %, unitless text.

>  <Molecule>
CCc1ccc(CCOc2ccc(CC3SC(=O)NC3=O)cc2)nc1 (centres undefined) [PIOGLITAZONE]

>  <Activity / %>
34.5

$$$$
>  <Molecule>
O=C(O)C1CCc2c(c3cc(OCc4ccccc4)ccc3n2S(=O)(=O)c2ccc(Cl)cc2)C1 (centres undefined)

>  <Activity / %>
16.3

$$$$
>  <Molecule>
Cc1c(CC(=O)O)c2cc(OCc3ccccc3)ccc2n1C(=O)c1ccc(Cl)cc1

>  <Activity / %>
30.3

$$$$

Proceed to the following item.
Q: Endpoint output: Activity of O=C(O)C1CCc2c(c3cc(OCc4ccccc4)ccc3n2C(=O)c2ccc(Cl)cc2)C1 (stereo in doubt; 7a) . Value?
A: 19.6

###

Biological target: AMP-activated protein kinase, AMPK (Homo sapiens) (UniProt P54646+O43741+P54619+Q9UGJ0+Q9Y478+Q13131+Q9UGI9)
Assay: Activation of AMPK in human HepG2 cells assessed as induction of glucose consumption at 1 uM treated over 24 hrs by glucose oxidase method relative to control
Format: cell-based
Property Label: Activity (%)

Example entries begin here.
>  <Molecule>
O=C(O)C1CCc2c(c3cc(OCc4ccccc4)ccc3n2C(=O)c2ccc(Cl)cc2)C1 (stereo in doubt; (+)-7a)

>  <Reported>
27.3

$$$$
>  <Molecule>
O=C(O)C1CCc2c(c3cc(OCc4ccccc4)ccc3n2C(=O)c2ccc(Cl)cc2)C1 (stereo in doubt; 7a)

>  <Reported>
30.2

$$$$
>  <Molecule>
N#Cc1ccc(COc2ccc3c(c2)c2c(n3C(=O)c3ccc(Cl)cc3)CCC(C(=O)O)C2)cc1 (configuration not stated)

>  <Reported>
26.8

$$$$
>  <Molecule>
O=C(O)C1CCc2c(c3cc(OCc4ccccc4)ccc3n2C(=O)c2ccc(Cl)cc2)C1 (single isomer, unassigned; (-))

>  <Reported>
35.6

$$$$
>  <Molecule>
CC(Oc1ccc2c(c1)c1c(n2C(=O)c2ccc(Cl)cc2)CCC(C(=O)O)C1)c1ccccc1 (configuration not stated)

>  <Reported>
32.2

$$$$

a: O=C(O)C1CCc2[nH]c3ccc(OCc4ccccc4)cc3c2C1 (configuration not stated)
b: O=C(O)C1CCc2c(c3cc(OCc4ccc(F)cc4)ccc3n2C(=O)c2ccc(Cl)cc2)C1 (configuration not stated)
Q: a or b : whose Activity is greater? Write down the label of the entry you select.
A: a

###

Biological target: AMP-activated protein kinase, AMPK (Homo sapiens) (UniProt P54646+O43741+P54619+Q9UGJ0+Q9Y478+Q13131+Q9UGI9)
Assay: Activation of AMPK in human HepG2 cells assessed as induction of glucose consumption at 10 uM treated over 24 hrs by glucose oxidase method relative to control
Type: cell-based
Property Label: Activity (%)

>  <Molecule>
COc1ccc(S(=O)(=O)n2c3c(c4cc(OCc5ccccc5)ccc42)CC(C(=O)O)CC3)cc1 (stereo not drawn)

>  <Measurement Units>
%

>  <Activity>
60.3

$$$$
>  <Molecule>
COc1ccc2c(c1)c1c(n2C(=O)c2ccc(Cl)cc2)CCC(C(=O)O)C1 (stereo not drawn)

>  <Measurement Units>
%

>  <Activity>
50.5

$$$$

###

Test system: Mus musculus
Test: Toxicity in db/db mouse assessed as increase in body weight at 30 mg/kg, po treated for 1 to 3 weeks measured at 3 hrs post last dose relative to control
Type: organism-based
Conditions: in vivo
Property Label: Activity (%)
Output spec: scalar in %, unitless text.

Q: Endpoint output: Activity of O=C(O)C1CCc2c(c3cc(OCc4ccccc4)ccc3n2S(=O)(=O)c2ccc(Cl)cc2)C1 (centres undefined) . Value?
A: 3.7

###

Biological target: AMP-activated protein kinase, AMPK (Homo sapiens) (UniProt P54646+O43741+P54619+Q9UGJ0+Q9Y478+Q13131+Q9UGI9)
Experiment: Activation of AMPK in human HepG2 cells assessed as induction of glucose consumption at 10 uM treated over 24 hrs by glucose oxidase method relative to control
Type: cell-based
Property Label: Activity (%)

A: O=C(O)C1CCc2c(c3cc(OCc4ccccc4)ccc3n2Cc2ccccc2)C1 (centres undefined)
B: O=C(O)C1CCc2c(c3cc4c(cc3n2S(=O)(=O)c2ccc(Cl)cc2)OCO4)C1 (centres undefined)
Q: Which of these two has the smaller recorded Activity: A or B ? Write down the label of the entry you select.
A: A

###

Experiment: AUC (0 to infinity) in Sprague-Dawley rat at 20 mg/kg, ig by LC/MS/MS analysis
Format: ADME, organism-based
Set-up: dose 20 mg/kg, route intragastric, time infinity
Settings: in vivo, po
Property Label: AUC(0-inf) (ng·h/mL)
Output spec: scalar in ng·h/mL, unitless text.

Q: Endpoint output: AUC(0-inf) of O=C(O)C1CCc2c(c3cc(OCc4ccccc4)ccc3n2C(=O)c2ccc(Cl)cc2)C1 (stereo in doubt; 7a) . Value?
A: 48300

###

Tested on: HepG2
Experiment: Induction of AMPKalpha phosphorylation at Thr172 residue in human HepG2 cells at 10 uM by Western blot analysis
Assay type: cell-based
Active and inactive are the calls of the source. The rule behind the calls is not given here.
Property Label: Activity

Example entries begin here.
>  <Compound>
O=C(O)C1CCc2c(c3cc(OCc4ccccc4)ccc3n2C(=O)c2ccc(Cl)cc2)C1 (stereo in doubt; (+)-7a)

>  <Activity>
Active

$$$$
>  <Compound>
N#Cc1ccc(COc2ccc3c(c2)c2c(n3C(=O)c3ccc(Cl)cc3)CCC(C(=O)O)C2)cc1 (configuration not stated)

>  <Activity>
Active

$$$$
>  <Compound>
O=C(O)C1CCc2c(c3cc(OCc4ccccc4)ccc3n2C(=O)c2ccc(Cl)cc2)C1 (single isomer, unassigned; (-))

>  <Activity>
Active

$$$$
>  <Compound>
O=C(O)C1CCc2c(c3cc(OCc4ccccc4)ccc3n2C(=O)c2ccc(Cl)cc2)C1 (stereo in doubt; 7a)

>  <Activity>
Active

$$$$

Q: Endpoint output: Activity of O=C(O)C1CCc2[nH]c3ccc(OCc4ccccc4)cc3c2C1 (configuration not stated) . Value?
A: Active

Q: Endpoint output: Activity of CC(Oc1ccc2c(c1)c1c(n2C(=O)c2ccc(Cl)cc2)CCC(C(=O)O)C1)c1ccccc1 (configuration not stated) . Value?
A: Active

Q: Endpoint output: Activity of Cc1nc(C)c(COc2ccc3c(c2)c2c(n3C(=O)c3ccc(Cl)cc3)CCC(C(=O)O)C2)nc1C (configuration not stated) . Value?
A: Active

###

Target: AMP-activated protein kinase, AMPK (Homo sapiens) (UniProt P54646+O43741+P54619+Q9UGJ0+Q9Y478+Q13131+Q9UGI9)
Experiment: Activation of AMPK in human HepG2 cells assessed as induction of glucose consumption at 10 uM treated over 24 hrs by glucose oxidase method relative to control
Assay type: cell-based
Property Label: Activity (%)

Example entries begin here.
>  <Molecule>
O=C(O)C1CCc2c(c3cc4c(cc3n2C(=O)c2ccc(Cl)cc2)OCO4)C1 (centres undefined)

>  <Measurement Units>
%

>  <Reported>
55.1

$$$$
>  <Molecule>
Cc1nc(C)c(COc2ccc3c(c2)c2c(n3C(=O)c3ccc(Cl)cc3)CCC(C(=O)O)C2)nc1C (centres undefined)

>  <Measurement Units>
%

>  <Reported>
47.5

$$$$
>  <Molecule>
Cc1ccc(Cn2c3c(c4cc(OCc5ccccc5)ccc42)CC(C(=O)O)CC3)cc1 (centres undefined)

>  <Measurement Units>
%

>  <Reported>
42.2

$$$$
>  <Molecule>
O=C(O)C1CCc2c(c3cc(OCc4ccccc4)ccc3n2S(=O)(=O)c2ccc(Cl)cc2)C1 (centres undefined)

>  <Measurement Units>
%

>  <Reported>
64.5

$$$$
>  <Molecule>
COc1ccc(S(=O)(=O)n2c3c(c4cc5c(cc42)OCO5)CC(C(=O)O)CC3)cc1 (centres undefined)

>  <Measurement Units>
%

>  <Reported>
40.3

$$$$

A: O=C(O)C1CCc2c(c3cc(OCc4ccccn4)ccc3n2C(=O)c2ccc(Cl)cc2)C1 (centres undefined)
B: O=C(O)C1CCc2c(c3cc(OCc4ccccc4)ccc3n2Cc2ccc(Cl)cc2)C1 (centres undefined)
Q: A or B : whose Activity is greater? Write down the label of the entry you select.
A: A
(A: 47.5%, B: 32.7%)
